Target: Transient receptor potential cation channel subfamily V member 1 (Homo sapiens) (UniProt Q8NER1)
Sequence (Q8NER1 whole entry, looked up): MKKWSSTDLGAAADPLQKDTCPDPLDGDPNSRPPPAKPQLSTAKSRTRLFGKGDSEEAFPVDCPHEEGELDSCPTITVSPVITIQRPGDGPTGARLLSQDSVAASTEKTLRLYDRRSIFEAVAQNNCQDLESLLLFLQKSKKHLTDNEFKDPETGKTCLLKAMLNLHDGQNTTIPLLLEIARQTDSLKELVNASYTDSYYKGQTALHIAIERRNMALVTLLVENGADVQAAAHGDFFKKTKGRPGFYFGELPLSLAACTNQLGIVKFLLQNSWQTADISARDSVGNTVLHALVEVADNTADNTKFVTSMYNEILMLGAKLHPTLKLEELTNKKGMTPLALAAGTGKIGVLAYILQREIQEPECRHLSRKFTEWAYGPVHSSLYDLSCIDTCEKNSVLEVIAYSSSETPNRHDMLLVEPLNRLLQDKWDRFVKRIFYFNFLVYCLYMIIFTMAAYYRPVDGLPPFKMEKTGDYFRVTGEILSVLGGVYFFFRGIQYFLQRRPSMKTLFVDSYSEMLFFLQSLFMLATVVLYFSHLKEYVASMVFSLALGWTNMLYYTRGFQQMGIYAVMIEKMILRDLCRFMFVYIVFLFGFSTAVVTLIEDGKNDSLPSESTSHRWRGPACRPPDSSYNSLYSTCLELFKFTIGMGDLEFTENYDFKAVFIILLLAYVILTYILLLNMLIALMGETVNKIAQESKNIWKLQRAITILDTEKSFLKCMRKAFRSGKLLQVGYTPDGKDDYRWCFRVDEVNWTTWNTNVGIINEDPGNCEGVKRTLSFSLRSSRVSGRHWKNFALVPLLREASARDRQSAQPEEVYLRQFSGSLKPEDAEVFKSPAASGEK
Test: HTS Assay for Compounds that Act as Agonists of the Vanilloid Receptor 1; further: 0% is about no effect
Conditions: TRPV1-expressing cells, Fluo-8 calcium influx, agonist mode; at 8.33 µM; stronger effect = higher value
In all, about 320,000 compounds went through this assay and about 620 (0.19%) were called active. Not shown: some 6% with an inconclusive outcome. The sample as a whole holds a higher share of actives than the screen did.
parameterMeasured: activation (%)
Report as a plain number; the unit % is understood.

For reference, reported activation for "O=C1/C(=C\c2ccsc2)NC(=S)N1c1ccccc1" stands at 2.57

Documented activation of "Cn1cccc1-c1nc2ccccc2n1C" : -1.64

For reference, reported activation for COc1cccc2cc(C(C)N(CCCN3CCOCC3)C(=O)Nc3ccc(Cl)cc3)oc12 (stereo not drawn) stands at 85.6
